# systemTested: T1, PSMA Fab (006 PSMA Fab)
# T1 construct: also called Anti-PSMA Fab
# assayMethodText: clonal phage ELISA on biotinylated PSMA Fab captured on neutravidin plates, anti-M13 HRP detection;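 note: crude clonal phage supernatants tested, before phage were added, wells were pretreated with PSMA antigen in blocking buffer or with blocking buffer only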
assayEndpoint: Phage binding ELISA signal, Anti-PSMA Fab

binder	valueObserved
ERPACVPMWMCTGL [Phage-3684]	1.47
LVKHCVPDWMCSGF [Phage-3677]	1.48
PHVVCIPEWMCAGF [Phage-3681]	1.47
STSWCSPPWMCEGF [Phage-3683]	1.47

Where do the numbers come from? From patent US20260242478A1.
